Data credit: PubChem BioAssay AID2060888

# System: 695427-040-R-J1-PDC complex spheroid viability;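 note: viability read after seven days of drug exposure; 100% = DMSO vehicle control viability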
# measurement_protocol: Anticancer human tumor 695427-040-R-J1-PDC patient-derived colon adenocarcinoma cell line growth inhibition [RAS]
# test_conditions: second compound 0.1 µM; first compound 0.316 µM; hits give low values
A collection of molecules and their measured viability, T/C
Provide the reading as a plain figure in %.

>>> test_value("CC(Nc1ccc2c(c1)OCCn1cc(N3C(=O)OCC3C(F)F)nc1-2)C(N)=O (centres undefined) + C=CC(=O)N1CCN(c2nc(OCC3CCCN3C)nc3c(F)c(-c4nc(N)cc(C)c4C(F)(F)F)c(Cl)cc23)C(C)C1")
64.3
>>> test_value("NC1c2ccccc2OC12CCN(c1cnc3c(N4CCCc5ncccc54)n[nH]c3n1)CC2 (centres undefined) + C#Cc1c(F)ccc2cc(O)cc(-c3ncc4c(N5CC6CCC(C5)N6)nc(OCC56CCCN5CC(F)C6)nc4c3F)c12")
55.9
>>> test_value("CCN1CCN(Cc2ccc(Nc3ncc(F)c(-c4cc(F)c5nc(C)n(C(C)C)c5c4)n3)nc2)CC1 + C#Cc1c(F)ccc2cc(O)cc(-c3ncc4c(N5CC6CCC(C5)N6)nc(OCC56CCCN5CC(F)C6)nc4c3F)c12")
91.6
>>> test_value("CC1(O)CCCC1n1c(=O)c(C(F)F)cc2cnc(NC3CCN(S(C)(=O)=O)CC3)nc21 (centres undefined) + C#Cc1c(F)ccc2cc(O)cc(-c3ncc4c(N5CC6CCC(C5)N6)nc(OCC56CCCN5CC(F)C6)nc4c3F)c12")
109
>>> test_value("NC1c2ccccc2OC12CCN(c1cnc3c(N4CCCc5ncccc54)n[nH]c3n1)CC2 (centres undefined) + C=CC(=O)N1CCN(c2nc(OCC3CCCN3C)nc3c(F)c(-c4nc(N)cc(C)c4C(F)(F)F)c(Cl)cc23)C(C)C1")
60.1
>>> test_value("C=CC(=O)N1CCN(c2nc(OCC3CCCN3C)nc3c(F)c(-c4nc(N)cc(C)c4C(F)(F)F)c(Cl)cc23)C(C)C1 (centres undefined) + C#Cc1c(F)ccc2cc(O)cc(-c3ncc4c(N5CC6CCC(C5)N6)nc(OCC56CCCN5CC(F)C6)nc4c3F)c12")
94.7

Field viability, T/C (system: 695427-040-R-J1-PDC complex spheroid viability) for entry Nc1ccn(C2OC(CO)C(O)C2(F)F)c(=O)n1 (centres undefined) + C#Cc1c(F)ccc2cc(O)cc(-c3ncc4c(N5CC6CCC(C5)N6)nc(OCC56CCCN5CC(F)C6)nc4c3F)c12 = 78.4

Field viability, T/C (system: 695427-040-R-J1-PDC complex spheroid viability) for entry CC(=O)OC12COC1CC(O)C1(C)C(=O)C(O)C3=C(C)C(OC(=O)C(O)C(NC(=O)OC(C)(C)C)c4ccccc4)CC(O)(C(OC(=O)c4ccccc4)C21)C3(C)C (centres undefined) + C=CC(=O)N1CCN(c2nc(OCC3CCCN3C)nc3c(F)c(-c4nc(N)cc(C)c4C(F)(F)F)c(Cl)cc23)C(C)C1 = 74

Field viability, T/C (system: 695427-040-R-J1-PDC complex spheroid viability) for entry CC(=O)OC12COC1CC(O)C1(C)C(=O)C(O)C3=C(C)C(OC(=O)C(O)C(NC(=O)OC(C)(C)C)c4ccccc4)CC(O)(C(OC(=O)c4ccccc4)C21)C3(C)C (centres undefined) + C#Cc1c(F)ccc2cc(O)cc(-c3ncc4c(N5CC6CCC(C5)N6)nc(OCC56CCCN5CC(F)C6)nc4c3F)c12 = 66

Field viability, T/C (system: 695427-040-R-J1-PDC complex spheroid viability) for entry C=CC(=O)Nc1cc(Nc2nccc(-c3cn(C)c4ccccc34)n2)c(OC)cc1N(C)CCN(C)C + C#Cc1c(F)ccc2cc(O)cc(-c3ncc4c(N5CC6CCC(C5)N6)nc(OCC56CCCN5CC(F)C6)nc4c3F)c12 = 58.6

Field viability, T/C (system: 695427-040-R-J1-PDC complex spheroid viability) for entry C[C@@H](NC(=O)c1ncnc(N)c1Cl)c1ncc(C(=O)Nc2cc(C(F)(F)F)c(Cl)cn2)s1 + C#Cc1c(F)ccc2cc(O)cc(-c3ncc4c(N5CC6CCC(C5)N6)nc(OCC56CCCN5CC(F)C6)nc4c3F)c12 = 101

Field viability, T/C (system: 695427-040-R-J1-PDC complex spheroid viability) for entry Cc1nc(N2CCC3(CC2)COC(C)C3N)c(CO)nc1Sc1ccnc(N)c1Cl (centres undefined) + C=CC(=O)N1CCN(c2nc(OCC3CCCN3C)nc3c(F)c(-c4nc(N)cc(C)c4C(F)(F)F)c(Cl)cc23)C(C)C1 = 78.6

Field viability, T/C (system: 695427-040-R-J1-PDC complex spheroid viability) for entry CC1(O)CCCC1n1c(=O)c(C(F)F)cc2cnc(NC3CCN(S(C)(=O)=O)CC3)nc21 (centres undefined) + C=CC(=O)N1CCN(c2nc(OCC3CCCN3C)nc3c(F)c(-c4nc(N)cc(C)c4C(F)(F)F)c(Cl)cc23)C(C)C1 = 107
